# Test system: Colon cancer organoid
# test: Targeting of F14 CAF-induced therapy resistance in O14 CRC organoid-stroma co-culture. Cell viability is reported without Gefitinib.
# Type: functional, Homo sapiens
# cond: Homo sapiens, Concentration 10 uM; read-out: Cell Viability
measure: viability at 10 µM (%)
The figure you give is taken to be in %; do not add the unit.

Please review the entries below; each comes with its answer.
# molecule, viability at 10 µM / %
records = [
    ("CCOC(=O)CCNc1cc(N2CCc3ccccc3CC2)nc(-c2ccccn2)n1", 93.3),
    ("Cc1c(Nc2ccc(S(=O)(=O)N3CCN(C)CC3)cc2F)nc2ccc(-c3cnn(C4CC4)c3)cn2c1=O", 51.6),
]

Then this molecule:
What does the record list as viability at 10 µM for Cc1ccc2[nH]c(CNCCCc3ccncc3)cc(=O)c2c1 [UCSF924NC] ? 127
